pIC50: −log10 of the molar value.
Quick record of pIC50 values for Voltage-gated inwardly rectifying potassium channel KCNH2 (Homo sapiens, UniProt Q12809).

- SAMPLE SMILES: "Cc1ccc(C(=O)Nc2ccc(CN3CCN(CCO)CC3)c(C3CC3)c2)cc1C#Cc1cnc2cccnn12"
  pIC50: 6.47
- SAMPLE SMILES: "Cc1ccc(C(=O)Nc2ccc(CN3Cc4cn[nH]c4C3)c(Cl)c2)cc1C#Cc1cnc2cccnn12"
  pIC50: 4.92
- SAMPLE SMILES: "Cc1ccc(C(=O)Nc2ccc(CN3CCN(CCO)CC3)c(Cl)c2)cc1C#Cc1cnc2cccnn12"
  pIC50: 7.00
- SAMPLE SMILES: "COCCN1CCN(Cc2ccc(NC(=O)c3ccc(C)c(C#Cc4cnc5cccnn45)c3)cc2C2CC2)CC1"
  pIC50: 7.10

====

Biological target: Proto-oncogene tyrosine-protein kinase Src (Homo sapiens)
Sequence (P12931 2-536 limits assumed): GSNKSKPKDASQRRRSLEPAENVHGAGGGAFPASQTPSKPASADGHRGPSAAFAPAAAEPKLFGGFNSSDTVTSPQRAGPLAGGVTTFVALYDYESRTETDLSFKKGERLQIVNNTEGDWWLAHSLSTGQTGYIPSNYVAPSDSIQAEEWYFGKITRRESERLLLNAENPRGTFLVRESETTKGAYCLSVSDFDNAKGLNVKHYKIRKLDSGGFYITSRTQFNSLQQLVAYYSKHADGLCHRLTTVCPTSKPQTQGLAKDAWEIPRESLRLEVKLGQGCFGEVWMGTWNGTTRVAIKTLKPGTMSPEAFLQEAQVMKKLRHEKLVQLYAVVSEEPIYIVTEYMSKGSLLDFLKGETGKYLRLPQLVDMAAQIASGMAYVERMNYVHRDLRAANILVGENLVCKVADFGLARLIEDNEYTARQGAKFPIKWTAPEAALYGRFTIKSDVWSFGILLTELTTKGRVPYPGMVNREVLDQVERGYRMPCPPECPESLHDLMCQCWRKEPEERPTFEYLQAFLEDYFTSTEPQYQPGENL
pIC50: −log10 of the molar value.
REPORTED ENDPOINT: pIC50

- SAMPLE SMILES: "Cc1ccc(C(=O)Nc2ccc(CN3Cc4cn[nH]c4C3)c(Cl)c2)cc1C#Cc1cnc2cccnn12"
  REPORTED ENDPOINT: "pIC50"
  RECORDED NUMBER: 6.37

====

Biological target: Tyrosine-protein kinase ABL1 (Homo sapiens)
Assay: Inhibition of ABL1 (unknown origin) assessed as residual activity incubated for 5 mins in presence of [gamma-33ATP] by scintillation counting based radiometry assay
REPORTED ENDPOINT: IC50 (nM)

- SAMPLE SMILES: "Cc1ccc(C(=O)Nc2ccc(CN3Cc4cn[nH]c4C3)c(Cl)c2)cc1C#Cc1cnc2cccnn12"
  REPORTED ENDPOINT: "IC50"
  RECORDED NUMBER: 1.3

====

Molecular target: Tyrosine-protein kinase Lck (Homo sapiens, UniProt P06239)
Sequence (P06239 whole entry): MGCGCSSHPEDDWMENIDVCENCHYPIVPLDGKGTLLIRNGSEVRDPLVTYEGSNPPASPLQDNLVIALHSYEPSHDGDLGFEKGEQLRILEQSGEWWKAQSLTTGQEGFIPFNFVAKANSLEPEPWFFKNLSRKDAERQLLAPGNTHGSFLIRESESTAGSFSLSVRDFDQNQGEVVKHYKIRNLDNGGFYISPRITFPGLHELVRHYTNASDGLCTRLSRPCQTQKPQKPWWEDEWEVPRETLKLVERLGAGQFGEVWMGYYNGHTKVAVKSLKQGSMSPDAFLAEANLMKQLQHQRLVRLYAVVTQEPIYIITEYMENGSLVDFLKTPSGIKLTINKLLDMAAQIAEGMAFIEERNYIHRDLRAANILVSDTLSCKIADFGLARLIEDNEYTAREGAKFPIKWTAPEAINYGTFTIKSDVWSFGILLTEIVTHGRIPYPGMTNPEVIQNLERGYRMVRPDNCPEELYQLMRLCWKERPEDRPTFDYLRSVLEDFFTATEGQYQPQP

- SAMPLE SMILES: "Cc1ccc(C(=O)Nc2ccc(CN3Cc4cn[nH]c4C3)c(Cl)c2)cc1C#Cc1cnc2cccnn12"
  IC50 / nM: 26.1

====

Target: Tyrosine-protein kinase ABL1 (Homo sapiens, UniProt P00519)
Sequence (P00519 whole entry): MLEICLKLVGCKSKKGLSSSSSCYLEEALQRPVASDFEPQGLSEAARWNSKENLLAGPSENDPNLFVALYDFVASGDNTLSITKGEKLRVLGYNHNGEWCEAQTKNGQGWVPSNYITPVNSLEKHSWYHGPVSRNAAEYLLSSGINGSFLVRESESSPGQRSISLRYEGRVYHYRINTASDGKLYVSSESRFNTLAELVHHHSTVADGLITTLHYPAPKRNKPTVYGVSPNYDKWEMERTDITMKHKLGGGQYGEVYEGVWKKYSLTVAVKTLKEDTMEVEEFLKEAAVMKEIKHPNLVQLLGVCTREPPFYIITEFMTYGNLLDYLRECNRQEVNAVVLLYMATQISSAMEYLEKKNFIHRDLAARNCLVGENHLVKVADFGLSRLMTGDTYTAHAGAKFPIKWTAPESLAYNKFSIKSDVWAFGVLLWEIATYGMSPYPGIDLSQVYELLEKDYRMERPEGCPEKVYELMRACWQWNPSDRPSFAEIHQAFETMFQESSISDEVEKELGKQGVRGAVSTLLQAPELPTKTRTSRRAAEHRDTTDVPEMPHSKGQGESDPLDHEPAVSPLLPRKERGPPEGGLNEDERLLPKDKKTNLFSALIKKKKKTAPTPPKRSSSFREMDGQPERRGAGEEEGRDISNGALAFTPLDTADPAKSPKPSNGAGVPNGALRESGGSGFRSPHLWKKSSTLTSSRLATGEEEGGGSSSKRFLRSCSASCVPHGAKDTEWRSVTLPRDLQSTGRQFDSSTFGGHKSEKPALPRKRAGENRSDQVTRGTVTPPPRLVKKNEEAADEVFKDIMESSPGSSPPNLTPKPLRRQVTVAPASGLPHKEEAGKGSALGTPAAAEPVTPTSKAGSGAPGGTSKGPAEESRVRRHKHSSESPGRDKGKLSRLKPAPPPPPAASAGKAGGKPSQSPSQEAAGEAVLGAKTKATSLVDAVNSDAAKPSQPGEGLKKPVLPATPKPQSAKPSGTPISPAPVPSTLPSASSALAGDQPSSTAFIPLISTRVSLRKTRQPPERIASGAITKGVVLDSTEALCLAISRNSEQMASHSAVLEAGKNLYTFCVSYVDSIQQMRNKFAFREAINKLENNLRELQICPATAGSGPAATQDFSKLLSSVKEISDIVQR
Test: Inhibition of human ABL1 assessed as residual activity using EAIYAAPFAKKK as substrate by [gamma-33P]-ATP assay
pIC50: −log10 of the molar value.

- SAMPLE SMILES: "Cc1ccc(C(=O)Nc2ccc(CN3CCN(CCO)CC3)c(Cl)c2)cc1C#Cc1cnc2cccnn12"
  RELATIONAL OPERATOR: "="
  pIC50: 9.41
- SAMPLE SMILES: "Cc1ccc(C(=O)Nc2ccc(CN3Cc4ccc(O)cc4C3)c(Cl)c2)cc1C#Cc1cnc2cccnn12"
  RELATIONAL OPERATOR: "<"
  pIC50: 7.52
- SAMPLE SMILES: "Cc1ccc(C(=O)Nc2ccc(CN3CCN(CCO)CC3)c(C3CC3)c2)cc1C#Cc1cnc2cccnn12"
  RELATIONAL OPERATOR: "="
  pIC50: 9.52
- SAMPLE SMILES: "Cc1ccc(C(=O)Nc2ccc(CN3Cc4cn[nH]c4C3)c(Cl)c2)cc1C#Cc1cnc2cccnn12"
  RELATIONAL OPERATOR: "="
  pIC50: 8.08

====

Target: Mitogen-activated protein kinase kinase kinase kinase 3 (Homo sapiens)
Sequence (Q8IVH8 whole entry): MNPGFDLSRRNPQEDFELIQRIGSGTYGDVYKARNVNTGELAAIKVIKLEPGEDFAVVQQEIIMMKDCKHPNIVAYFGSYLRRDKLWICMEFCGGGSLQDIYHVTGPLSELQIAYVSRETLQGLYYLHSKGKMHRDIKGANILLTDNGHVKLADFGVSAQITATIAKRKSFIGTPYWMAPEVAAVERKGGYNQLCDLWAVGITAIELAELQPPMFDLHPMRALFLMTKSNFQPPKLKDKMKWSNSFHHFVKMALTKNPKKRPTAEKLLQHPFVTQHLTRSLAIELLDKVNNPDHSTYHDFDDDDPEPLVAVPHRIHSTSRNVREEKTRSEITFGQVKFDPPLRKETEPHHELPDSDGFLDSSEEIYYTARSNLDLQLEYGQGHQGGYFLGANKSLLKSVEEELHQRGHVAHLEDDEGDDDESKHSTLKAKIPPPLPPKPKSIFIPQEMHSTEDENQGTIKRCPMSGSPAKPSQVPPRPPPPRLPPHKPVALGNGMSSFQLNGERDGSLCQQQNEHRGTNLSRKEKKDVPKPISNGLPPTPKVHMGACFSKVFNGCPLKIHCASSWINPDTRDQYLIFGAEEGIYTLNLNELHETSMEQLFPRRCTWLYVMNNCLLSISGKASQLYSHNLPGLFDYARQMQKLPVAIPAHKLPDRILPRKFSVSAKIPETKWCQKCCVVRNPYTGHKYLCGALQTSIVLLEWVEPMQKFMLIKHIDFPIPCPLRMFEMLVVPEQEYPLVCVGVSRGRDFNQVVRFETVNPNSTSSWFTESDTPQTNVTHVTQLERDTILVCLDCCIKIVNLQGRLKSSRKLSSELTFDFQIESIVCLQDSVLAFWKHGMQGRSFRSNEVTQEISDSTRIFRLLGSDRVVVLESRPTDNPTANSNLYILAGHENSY
Assay: Inhibition of MAP4K3 (unknown origin) assessed as residual activity incubated for 5 mins in presence of [gamma-33ATP] by scintillation counting based radiometry assay
REPORTED ENDPOINT: IC50 (nM)

- SAMPLE SMILES: "Cc1ccc(C(=O)Nc2ccc(CN3Cc4cn[nH]c4C3)c(Cl)c2)cc1C#Cc1cnc2cccnn12"
  REPORTED ENDPOINT: "IC50"
  RECORDED NUMBER: 240
